SYSTEM: D(3) dopamine receptor (Homo sapiens); note: assay procedure not described here
Sequence (P35462 whole entry): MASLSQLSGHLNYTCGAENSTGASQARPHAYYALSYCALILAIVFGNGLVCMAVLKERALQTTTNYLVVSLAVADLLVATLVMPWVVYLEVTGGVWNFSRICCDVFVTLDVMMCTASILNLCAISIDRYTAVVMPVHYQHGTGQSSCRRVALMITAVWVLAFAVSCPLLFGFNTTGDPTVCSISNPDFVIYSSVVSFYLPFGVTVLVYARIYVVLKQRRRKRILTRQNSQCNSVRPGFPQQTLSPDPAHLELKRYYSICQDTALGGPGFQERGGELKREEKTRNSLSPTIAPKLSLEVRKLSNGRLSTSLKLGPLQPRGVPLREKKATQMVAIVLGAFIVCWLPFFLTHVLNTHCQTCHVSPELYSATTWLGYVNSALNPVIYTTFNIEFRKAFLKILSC
Reported AC50 is given for each of the following compounds.

| COMPOUND | AC50 |
| --- | --- |
| Cc1cc2c(cc1CC(=O)c1sccc1S(=O)(=O)Nc1onc(C)c1Cl)OCO2 | > 30 µM |
| CC(C)OC(=O)[C@H](C)N[P@](=O)(OC[C@H]1O[C@@H](n2ccc(=O)[nH]c2=O)[C@](C)(F)[C@@H]1O)Oc1ccccc1 | > 30 µM |
| COc1cc(NCc2ccc3nc(N)nc(N)c3c2C)cc(OC)c1OC [TRIMETREXATE] | 2.67 µM |
| O=[N+]([O-])c1cncn1CCN1CCOCC1 | > 30 µM |
| O=C(NC[C@H]1CN(c2ccc(N3CCOCC3=O)cc2)C(=O)O1)c1ccc(Cl)s1 | > 30 µM |

Q: What does the record list as AC50 for `CC/C=C\C/C=C\C/C=C\C/C=C\C/C=C\CCCC(=O)O` ?
A: > 30 µM

Q: Same question, O=C(NC1CCN(CCCCC2(C(=O)NCC(F)(F)F)c3ccccc3-c3ccccc32)CC1)c1ccccc1-c1ccc(C(F)(F)F)cc1 [LOMITAPIDE] this time
A: 1.76 µM

Q: Same question, `Oc1cccc2cccnc12` this time
A: > 30 µM

----------
Reported AC50 is given for each of the following compounds.
SYSTEM: Muscarinic acetylcholine receptor M2 (Homo sapiens); note: assay procedure not described here
Sequence (P08172 whole entry): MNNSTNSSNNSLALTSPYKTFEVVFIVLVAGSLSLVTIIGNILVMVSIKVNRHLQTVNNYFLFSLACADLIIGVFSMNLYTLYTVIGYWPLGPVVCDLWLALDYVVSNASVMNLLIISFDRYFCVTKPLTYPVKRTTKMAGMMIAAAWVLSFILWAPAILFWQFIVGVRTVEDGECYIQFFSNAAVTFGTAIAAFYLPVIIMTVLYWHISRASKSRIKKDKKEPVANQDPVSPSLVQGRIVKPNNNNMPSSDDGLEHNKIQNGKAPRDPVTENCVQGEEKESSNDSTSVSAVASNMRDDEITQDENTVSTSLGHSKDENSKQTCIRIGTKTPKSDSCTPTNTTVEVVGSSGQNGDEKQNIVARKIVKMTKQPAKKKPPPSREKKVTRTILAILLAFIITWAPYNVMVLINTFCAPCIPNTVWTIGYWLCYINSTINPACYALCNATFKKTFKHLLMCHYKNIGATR
Type: functional, cell-based

| COMPOUND | SYSTEM | OBSERVED_PROPERTY | RESULT |
| --- | --- | --- | --- |
| CC(C)C(=O)Nc1ccc([N+](=O)[O-])c(C(F)(F)F)c1 [FLUTAMIDE] | Muscarinic acetylcholine receptor M2 (Homo sapiens) | AC50 | > 10 µM |
| CC(C)C(=O)OCC(=O)[C@@]12O[C@H](C3CCCCC3)O[C@@H]1C[C@H]1[C@@H]3CCC4=CC(=O)C=C[C@]4(C)[C@H]3[C@@H](O)C[C@@]12C [CICLESONIDE] | Muscarinic acetylcholine receptor M2 (Homo sapiens) | AC50 | > 10 µM |
| CCCOc1ccc(C(=O)OCCN(CC)CC)cc1N [PROPARACAINE] | Muscarinic acetylcholine receptor M2 (Homo sapiens) | AC50 | > 30 µM |
| CN1C(=O)COc2c(C(=O)NC3CN4CCC3CC4)cc(Cl)cc21 (stereo not drawn) [AZASETRON] | Muscarinic acetylcholine receptor M2 (Homo sapiens) | AC50 | > 30 µM |
| CN(CCOc1ccc(NS(C)(=O)=O)cc1)CCc1ccc(NS(C)(=O)=O)cc1 [DOFETILIDE] | Muscarinic acetylcholine receptor M2 (Homo sapiens) | AC50 | > 30 µM |

Q: What does the record list as AC50 for COC(=O)N[C@H](C(=O)N[C@@H](Cc1ccccc1)[C@@H](O)CN(Cc1ccc(-c2ccccn2)cc1)NC(=O)[C@@H](NC(=O)OC)C(C)(C)C)C(C)(C)C [ATAZANAVIR] ?
A: > 10 µM

Q: Same question, `CN1CC(=O)N2[C@H](c3ccc4c(c3)OCO4)c3[nH]c4ccccc4c3C[C@@H]2C1=O` this time
A: > 10 µM

Q: Same question, N[C@@H](CSCC(=O)O)C(=O)O [CARBOCYSTEINE] this time
A: > 30 µM

----------
SYSTEM: Alpha-1A adrenergic receptor (Homo sapiens, UniProt P35348); note: assay procedure not described here
Sequence (P35348 whole entry): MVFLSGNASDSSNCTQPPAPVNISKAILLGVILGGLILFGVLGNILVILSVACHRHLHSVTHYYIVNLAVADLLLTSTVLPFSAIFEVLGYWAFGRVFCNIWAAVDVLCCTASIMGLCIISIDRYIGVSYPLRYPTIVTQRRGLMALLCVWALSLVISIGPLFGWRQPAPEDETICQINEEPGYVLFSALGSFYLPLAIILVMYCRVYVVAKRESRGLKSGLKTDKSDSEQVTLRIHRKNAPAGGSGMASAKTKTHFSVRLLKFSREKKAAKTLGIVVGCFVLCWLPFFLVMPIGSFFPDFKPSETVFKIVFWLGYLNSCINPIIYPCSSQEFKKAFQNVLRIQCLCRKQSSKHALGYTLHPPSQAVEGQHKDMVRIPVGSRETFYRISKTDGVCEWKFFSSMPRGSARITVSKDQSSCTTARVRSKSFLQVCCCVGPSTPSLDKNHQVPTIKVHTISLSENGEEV
Reported AC50 is given for each of the following molecules.

| MOLECULE | AC50 |
| --- | --- |
| Cc1cc(-c2ccccc2)nnc1NCCN1CCOCC1 | > 10 µM |

Q: What does the record list as AC50 for CC(Cc1ccccc1)NCCC(c1ccccc1)c1ccccc1 (centres undefined) ?
A: 0.877 µM

Q: Same question, C[C@H]1O[C@H](O[C@H]2[C@H](O)[C@@H](O)[C@@H](O[C@H]3[C@H](O)[C@@H](O)C(O)O[C@@H]3CO)O[C@@H]2CO)[C@H](O)[C@@H](O)[C@@H]1N[C@H]1C=C(CO)[C@@H](O)[C@H](O)[C@H]1O (some centres undefined) this time
A: > 10 µM

Q: Same question, CN1C(=O)CC(C)(c2ccccc2)C1=O (centres undefined) [METHSUXIMIDE] this time
A: > 30 µM

Q: Same question, CN(C)C(=O)OC1N=C(c2ccccc2)c2cc(Cl)ccc2N(C)C1=O (centres undefined) this time
A: > 10 µM

Q: Same question, CC(=O)N(CC(O)CO)c1c(I)c(C(=O)NCC(O)CO)c(I)c(C(=O)NCC(O)CO)c1I (centres undefined) [IOHEXOL] this time
A: > 10 µM

Q: Same question, CC(C)[N+](C)(CCC(C(N)=O)(c1ccccc1)c1ccccc1)C(C)C [ISOPROPAMIDE] this time
A: > 10 µM

----------
Reported AC50 is given for each of the following molecules.
SYSTEM: UniProt:P11229
Sequence (P11229 whole entry): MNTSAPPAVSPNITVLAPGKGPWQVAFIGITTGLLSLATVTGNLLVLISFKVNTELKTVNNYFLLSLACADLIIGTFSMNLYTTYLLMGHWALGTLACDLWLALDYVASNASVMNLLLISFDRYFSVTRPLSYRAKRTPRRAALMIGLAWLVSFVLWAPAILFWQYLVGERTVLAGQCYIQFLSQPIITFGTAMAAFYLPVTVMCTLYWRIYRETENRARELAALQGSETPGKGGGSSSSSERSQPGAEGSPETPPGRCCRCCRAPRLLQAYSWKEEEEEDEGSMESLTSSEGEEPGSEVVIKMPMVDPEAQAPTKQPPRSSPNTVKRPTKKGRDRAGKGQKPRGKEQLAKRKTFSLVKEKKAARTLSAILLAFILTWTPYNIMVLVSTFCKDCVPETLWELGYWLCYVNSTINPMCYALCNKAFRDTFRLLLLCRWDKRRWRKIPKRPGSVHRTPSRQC
Assay type: functional

Consider the worked cases shown below.
| MOLECULE | AC50 |
| --- | --- |
| CCCCCCCCOc1ccccc1C(=O)Nc1ccc(C(=O)OCC[N+](C)(CC)CC)cc1 [OTILONIUM BROMIDE] | 1.3 µM |
| CC(C)C(=O)OCC(=O)[C@@]12O[C@H](C3CCCCC3)O[C@@H]1C[C@H]1[C@@H]3CCC4=CC(=O)C=C[C@]4(C)[C@H]3[C@@H](O)C[C@@]12C [CICLESONIDE] | > 10 µM |
| CNC(=O)c1cc(Oc2ccc(NC(=O)Nc3ccc(Cl)c(C(F)(F)F)c3)cc2)ccn1 | > 30 µM |

Q: What does the record list as AC50 for `CC(=O)c1ccc2c(c1)N(CCCN1CCN(CCO)CC1)c1ccccc1S2` ?
A: > 30 µM

----------
Measurement record for Sodium-dependent noradrenaline transporter (Homo sapiens, UniProt P23975); quantity recorded: AC50.

Consider the worked cases shown below.
| COMPOUND | RESULT |
| --- | --- |
| CN1CCC2=C(C1)C(c1ccccc1)c1ccccc12 (stereo not drawn) | > 30 µM |
| NC[C@H]1CC[C@H](C(=O)O)CC1 | > 10 µM |
| O=P(O)(O)C(O)(Cc1cccnc1)P(=O)(O)O | > 30 µM |
| COC(=O)N[C@H](C(=O)N1CCC[C@H]1c1nc(-c2ccc(-c3ccc(-c4c[nH]c([C@@H]5CCCN5C(=O)[C@@H](NC(=O)OC)C(C)C)n4)cc3)cc2)c[nH]1)C(C)C | > 30 µM |
| CC(C)(Oc1ccc(C2CC2(Cl)Cl)cc1)C(=O)O (stereo not drawn) [CIPROFIBRATE] | > 30 µM |

Q: What does the record list as AC50 for `CC[C@H](C)C(=O)O[C@H]1C[C@H](O)C=C2C=C[C@H](C)[C@H](CC[C@@H](O)C[C@@H](O)CC(=O)O)[C@H]21` ?
A: > 30 µM

Q: Same question, `CN1CC(=O)N2[C@H](c3ccc4c(c3)OCO4)c3[nH]c4ccccc4c3C[C@@H]2C1=O` this time
A: > 30 µM

Q: Same question, `C[C@@H]1O[C@@H]1P(=O)(O)O` this time
A: > 10 µM

----------
Measurement record for UniProt P21728; quantity recorded: AC50.
Sequence (P21728 whole entry): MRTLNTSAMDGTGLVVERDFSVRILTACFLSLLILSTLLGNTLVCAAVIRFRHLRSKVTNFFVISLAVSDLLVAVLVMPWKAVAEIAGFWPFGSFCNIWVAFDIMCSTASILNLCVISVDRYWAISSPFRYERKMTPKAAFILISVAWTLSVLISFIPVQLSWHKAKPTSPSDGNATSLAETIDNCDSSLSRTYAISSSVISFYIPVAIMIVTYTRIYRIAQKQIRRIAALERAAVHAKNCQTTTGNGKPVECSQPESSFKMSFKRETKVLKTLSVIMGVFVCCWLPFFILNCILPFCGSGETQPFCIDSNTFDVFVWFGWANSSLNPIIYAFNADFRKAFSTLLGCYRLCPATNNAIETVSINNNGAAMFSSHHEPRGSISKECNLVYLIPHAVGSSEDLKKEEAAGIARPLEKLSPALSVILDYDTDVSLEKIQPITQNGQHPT

Consider the worked cases shown below.
| COMPOUND | AC50 |
| --- | --- |
| O=C1CCC(N2C(=O)c3ccccc3C2=O)C(=O)N1 (stereo unspecified) [THALIDOMIDE] | > 30 µM |
| CCOc1ccc(/C=C2\NCCc3cc(OCC)c(OCC)cc32)cc1OCC | > 30 µM |
| Cc1cc2c(cc1CC(=O)c1sccc1S(=O)(=O)Nc1onc(C)c1Cl)OCO2 | > 30 µM |

Q: What does the record list as AC50 for `Oc1ncnc2[nH]ncc12` ?
A: > 30 µM

Q: Same question, CC1(C)O[C@@H]2C[C@H]3[C@@H]4C[C@H](F)C5=CC(=O)CC[C@]5(C)[C@H]4[C@@H](O)C[C@]3(C)[C@]2(C(=O)CO)O1 [FLURANDRENOLIDE] this time
A: > 30 µM

Q: Same question, O=C(Nc1ccccc1)OCC(CN1CCCCC1)OC(=O)Nc1ccccc1 (stereo unspecified) this time
A: > 30 µM

Attribution: ChEMBL document CHEMBL5291721
